The reported measurements were obtained from patent US20080234327A1.

- tested.on: DMT1 (Homo sapiens, UniProt P49281)
- Sequence (P49281 1-568): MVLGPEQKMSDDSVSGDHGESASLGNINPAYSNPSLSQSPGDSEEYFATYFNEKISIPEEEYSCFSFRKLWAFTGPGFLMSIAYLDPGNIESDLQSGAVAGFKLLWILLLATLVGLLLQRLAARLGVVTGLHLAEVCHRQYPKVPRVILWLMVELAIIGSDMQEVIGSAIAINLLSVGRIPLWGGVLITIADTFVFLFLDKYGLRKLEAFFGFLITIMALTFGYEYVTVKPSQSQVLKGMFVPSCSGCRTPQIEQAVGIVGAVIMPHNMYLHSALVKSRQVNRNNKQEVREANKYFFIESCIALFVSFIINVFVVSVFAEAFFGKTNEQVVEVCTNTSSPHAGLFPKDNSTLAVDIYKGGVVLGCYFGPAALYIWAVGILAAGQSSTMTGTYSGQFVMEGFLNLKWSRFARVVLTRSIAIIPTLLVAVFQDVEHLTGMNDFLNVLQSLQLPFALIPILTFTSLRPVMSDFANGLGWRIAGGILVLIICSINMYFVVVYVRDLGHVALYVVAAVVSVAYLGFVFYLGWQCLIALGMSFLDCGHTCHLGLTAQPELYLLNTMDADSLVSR
- experimental.protocol: DMT1 activity assay (in vitro)
- assay.setup: inhibition of DMT1; read-out: IC50 Activity Level
pIC50: −log10 of the molar value.
Collected pIC50 values appear next to each entry.

>>> print(df.to_string())
                                 molecule                            tested_on  measurement_label  result
0  COc1ccc2c(c1)-c1c(nn(-c3ccccn3)c1O)CC2  DMT1 (Homo sapiens, UniProt P49281)              pIC50  ≤ 6.00

Now consider a different molecule.
Ask | Given the entry COc1ccc2c(c1)CCc1nn(-c3nc4ccccc4s3)c(O)c1-2 , report its measured pIC50.
Reply | 6.00 to 7.00

====

Collected melting point values appear next to each entry.

Worked examples, 2 compounds total:
>>> print(df.to_string())
                                   compound         result
0  COc1ccc2nc(-n3nc4c(c3O)-c3ccccc3CC4)sc2c1 [Example 4.2]  204 to 205 °C
1  N#Cc1ccc(-c2ccc3c(c2)CCc2nn(-c4ccccn4)c(O)c2-3)cc1 [Example 1.9]  274 to 275 °C

Ask | Given the entry Oc1c2c(nn1-c1nc3ccccc3s1)CCc1ccccc1-2 [Example 4] , report its measured melting point.
Reply | 234 to 235 °C

Ask | Given the entry Oc1c2c(nn1-c1ccccn1)CCCc1ccccc1-2 [Example 7] , report its measured melting point.
Reply | 80 to 81 °C

Ask | Given the entry COc1ccc2c(c1)-c1c(nn(-c3ccccn3)c1O)CC2 [Example 1.3] , report its measured melting point.
Reply | 116 to 117 °C

Ask | Given the entry [O-][n+]1ccccc1-n1nc2c(c1O)-c1ccccc1CC2 [Example 3] , report its measured melting point.
Reply | 155 to 156 °C

Ask | Given the entry Oc1c2c(nn1-c1cc(C(F)(F)F)ccn1)CCc1ccccc1-2 [Example 1.11] , report its measured melting point.
Reply | 161 to 162 °C
